The reported numbers originate from ChEMBL document CHEMBL1138134.

- assayed-system: Poly [ADP-ribose] polymerase 1 (Homo sapiens, UniProt P09874)
- Sequence (P09874 whole entry): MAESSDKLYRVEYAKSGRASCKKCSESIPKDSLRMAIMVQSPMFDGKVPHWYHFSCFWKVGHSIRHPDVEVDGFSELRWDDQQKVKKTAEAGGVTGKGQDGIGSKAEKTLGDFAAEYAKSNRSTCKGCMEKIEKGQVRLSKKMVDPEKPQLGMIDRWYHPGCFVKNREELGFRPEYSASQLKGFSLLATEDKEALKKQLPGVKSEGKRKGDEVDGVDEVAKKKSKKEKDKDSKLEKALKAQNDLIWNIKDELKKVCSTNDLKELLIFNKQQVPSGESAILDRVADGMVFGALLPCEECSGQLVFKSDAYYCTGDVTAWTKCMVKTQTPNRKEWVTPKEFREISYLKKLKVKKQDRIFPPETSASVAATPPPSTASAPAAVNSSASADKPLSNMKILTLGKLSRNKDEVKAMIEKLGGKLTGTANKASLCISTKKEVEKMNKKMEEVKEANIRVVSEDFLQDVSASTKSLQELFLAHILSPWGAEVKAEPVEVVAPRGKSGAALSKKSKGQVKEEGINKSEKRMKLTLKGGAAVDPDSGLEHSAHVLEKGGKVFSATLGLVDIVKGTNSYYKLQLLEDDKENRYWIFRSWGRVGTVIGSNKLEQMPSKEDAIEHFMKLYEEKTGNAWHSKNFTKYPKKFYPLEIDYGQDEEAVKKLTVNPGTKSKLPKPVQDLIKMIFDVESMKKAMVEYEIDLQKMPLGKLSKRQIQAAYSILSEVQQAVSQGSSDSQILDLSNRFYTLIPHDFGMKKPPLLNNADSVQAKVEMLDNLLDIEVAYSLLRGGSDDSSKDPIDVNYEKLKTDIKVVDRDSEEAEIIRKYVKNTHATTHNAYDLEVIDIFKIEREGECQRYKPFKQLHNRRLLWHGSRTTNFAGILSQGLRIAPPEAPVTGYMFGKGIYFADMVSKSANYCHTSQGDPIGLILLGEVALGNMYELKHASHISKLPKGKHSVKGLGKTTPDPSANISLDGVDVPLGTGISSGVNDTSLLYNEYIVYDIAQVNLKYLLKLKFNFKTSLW
- run-parameters: HeLa
- Description: Ratio of inhibition of HeLa cell proliferation by MMS alone against MMS with PARP inhibitors
Provide the recorded PF50 for the entries that follow.

Qu. Report measured PF50 on Poly [ADP-ribose] polymerase 1 (Homo sapiens, UniProt P09874); entry: `CCC(=O)Nc1cccc(Cc2n[nH]c(=O)c3ccccc23)c1`
Ans. 2.3

Qu. Report measured PF50 on Poly [ADP-ribose] polymerase 1 (Homo sapiens, UniProt P09874); entry: `O=C(c1cccc(Cc2nnc(O)c3ccccc23)c1)N1CCCN(S(=O)(=O)c2cccc(C(F)(F)F)c2)CC1`
Ans. 2.1

Qu. Report measured PF50 on Poly [ADP-ribose] polymerase 1 (Homo sapiens, UniProt P09874); entry: `CC(C)CNC(=O)C1CCN(C(=O)c2cccc(Cc3nnc(O)c4ccccc34)c2)CC1`
Ans. 2

Qu. Report measured PF50 on Poly [ADP-ribose] polymerase 1 (Homo sapiens, UniProt P09874); entry: `CN(C)CCN(C)C(=O)c1cccc(Cc2nnc(O)c3ccccc23)c1`
Ans. 2.2

Qu. Report measured PF50 on Poly [ADP-ribose] polymerase 1 (Homo sapiens, UniProt P09874); entry: `CCN1CCCN(C(=O)c2cccc(Cc3nnc(O)c4ccccc34)c2)CC1`
Ans. 2.6

Qu. Report measured PF50 on Poly [ADP-ribose] polymerase 1 (Homo sapiens, UniProt P09874); entry: `O=C(c1cc(Cc2nnc(O)c3ccccc23)ccc1F)N1CCCN(C2CCCCC2)CC1`
Ans. 6.3

Qu. Report measured PF50 on Poly [ADP-ribose] polymerase 1 (Homo sapiens, UniProt P09874); entry: `CCN1CCCN(C(=O)c2cc(Cc3nnc(O)c4ccccc34)ccc2F)CC1`
Ans. 6.7

Qu. Report measured PF50 on Poly [ADP-ribose] polymerase 1 (Homo sapiens, UniProt P09874); entry: `O=C(c1cccc(Cc2nnc(O)c3ccccc23)c1)N1CCCNCC1`
Ans. 2.4

Qu. Report measured PF50 on Poly [ADP-ribose] polymerase 1 (Homo sapiens, UniProt P09874); entry: `Cc1noc(C)c1S(=O)(=O)N1CCCN(C(=O)c2cccc(Cc3nnc(O)c4ccccc34)c2)CC1`
Ans. 2.1

Qu. Report measured PF50 on Poly [ADP-ribose] polymerase 1 (Homo sapiens, UniProt P09874); entry: `O=C(c1cccc(Cc2nnc(O)c3ccccc23)c1)N1CCCN(C2CCCCC2)CC1`
Ans. 6.6

* * *

- assayed-system: Poly [ADP-ribose] polymerase 1 (Homo sapiens, UniProt P09874)
- run-parameters: HeLa
quantity-kind: PF50
A bare number is all that is needed in reply.

Qu. Specify measured PF50 for `COc1cc2c(cc1OC)CN(C(=O)C1CCN(C(=O)c3cccc(Cc4nnc(O)c5ccccc45)c3)CC1)CC2` .
Ans. 4.1

Qu. Specify measured PF50 for `CCCN1CCCN(C(=O)c2cccc(Cc3nnc(O)c4ccccc34)c2)CC1` .
Ans. 2.5

Qu. Specify measured PF50 for `O=C(c1cccc(Cc2nnc(O)c3ccccc23)c1)N1CCCN(S(=O)(=O)c2ccc(-c3ccccc3)cc2)CC1` .
Ans. 3.2

* * *

- experiment: Aqueous solubility at pH 7.4
- Assay type: physicochemical
quantity-kind: solubility (µg/mL)
Unit µg/mL implied. Number only.

Qu. Specify measured solubility for `O=C(c1cc(Cc2n[nH]c(=O)c3ccccc23)ccc1F)N1CCCNCC1` .
Ans. 5100

* * *

- assayed-system: Poly [ADP-ribose] polymerase 1 (Homo sapiens, UniProt P09874)
- run-parameters: HeLa
Provide the recorded PF50 for the entries that follow.

Qu. Specify measured PF50 for `O=C(c1cccc(Cc2nnc(O)c3ccccc23)c1)N1CCc2ccccc2C1` .
Ans. 3.4

Qu. Specify measured PF50 for `CCNC(=O)c1cccc(Cc2n[nH]c(=O)c3ccccc23)c1` .
Ans. 2.1

Qu. Specify measured PF50 for `CN1CCCN(C(=O)c2cc(Cc3nnc(O)c4ccccc34)ccc2F)CC1` .
Ans. 5.5

Qu. Specify measured PF50 for `CCCN1CCCN(C(=O)c2cc(Cc3nnc(O)c4ccccc34)ccc2F)CC1` .
Ans. 7

Qu. Specify measured PF50 for `COc1ccc(NC(=O)N2CCCN(C(=O)c3cccc(Cc4nnc(O)c5ccccc45)c3)CC2)cc1` .
Ans. 2.2

Qu. Specify measured PF50 for `O=C(c1cccc(Cc2nnc(O)c3ccccc23)c1)N1CCCN(CC2CC2)CC1` .
Ans. 3.1

Qu. Specify measured PF50 for `CN1CCCN(C(=O)c2cccc(Cc3nnc(O)c4ccccc34)c2)CC1` .
Ans. 1.8

Qu. Specify measured PF50 for `O=C(c1cccc(Cc2n[nH]c(=O)c3ccccc23)c1)N1CCNCC1` .
Ans. 3.7

Qu. Specify measured PF50 for `O=C(NC1CCCC1)C1CCN(C(=O)c2cccc(Cc3nnc(O)c4ccccc34)c2)CC1` .
Ans. 2.5

Qu. Specify measured PF50 for `CN(Cc1ccccc1)C(=O)C1CCN(C(=O)c2cccc(Cc3nnc(O)c4ccccc34)c2)CC1` .
Ans. 2.1

Qu. Specify measured PF50 for `O=C(c1cccc(Cc2nnc(O)c3ccccc23)c1)N1CCOCC1` .
Ans. 1.2

Qu. Specify measured PF50 for `O=C(c1cccc(Cc2nnc(O)c3ccccc23)c1)N1CCC(C(=O)N2CCCCC2)CC1` .
Ans. 3.9

Qu. Specify measured PF50 for `O=C(c1cc(Cc2n[nH]c(=O)c3ccccc23)ccc1F)N1CCCNCC1` .
Ans. 12.6

Qu. Specify measured PF50 for `O=C(NCCc1cccs1)C1CCN(C(=O)c2cccc(Cc3nnc(O)c4ccccc34)c2)CC1` .
Ans. 2.8

Qu. Specify measured PF50 for `CC1CCN(C(=O)C2CCN(C(=O)c3cccc(Cc4nnc(O)c5ccccc45)c3)CC2)CC1` .
Ans. 4.4

Qu. Specify measured PF50 for CCC(C)CN(C)C(=O)C1CCN(C(=O)c2cccc(Cc3nnc(O)c4ccccc34)c2)CC1 (stereo not given) .
Ans. 2.6

Qu. Specify measured PF50 for `O=C(c1cc(Cc2nnc(O)c3ccccc23)ccc1F)N1CCCN(CC2CC2)CC1` .
Ans. 6.7

Qu. Specify measured PF50 for `COc1cc(C(=O)N2CCCN(C(=O)c3cccc(Cc4nnc(O)c5ccccc45)c3)CC2)cc(Cl)n1` .
Ans. 2.5

Qu. Specify measured PF50 for `COc1cccc(CCC(=O)N2CCCN(C(=O)c3cccc(Cc4nnc(O)c5ccccc45)c3)CC2)c1` .
Ans. 2.5

Qu. Specify measured PF50 for `CCOC(=O)C1CCN(C(=O)c2cccc(Cc3nnc(O)c4ccccc34)c2)CC1` .
Ans. 2.1

* * *

quantity-kind: pIC50
Please treat pIC50 as minus the base-10 logarithm of the molar concentration.

Qu. Report measured pIC50 on Poly [ADP-ribose] polymerase 1 (Homo sapiens); entry: `CC1CCN(C(=O)C2CCN(C(=O)c3cccc(Cc4n[nH]c(=O)c5ccccc45)c3)CC2)CC1`
Ans. 8.10

Qu. Report measured pIC50 on Poly [ADP-ribose] polymerase 1 (Homo sapiens); entry: `O=C(c1cccc(Cc2n[nH]c(=O)c3ccccc23)c1)N1CCCNCC1`
Ans. 8.05

Qu. Report measured pIC50 on Poly [ADP-ribose] polymerase 1 (Homo sapiens); entry: `CCOC(=O)C1CCN(C(=O)c2cccc(Cc3n[nH]c(=O)c4ccccc34)c2)CC1`
Ans. 7.82

Qu. Report measured pIC50 on Poly [ADP-ribose] polymerase 1 (Homo sapiens); entry: `O=C(NCCc1cccs1)C1CCN(C(=O)c2cccc(Cc3nnc(O)c4ccccc34)c2)CC1`
Ans. 8.10

Qu. Report measured pIC50 on Poly [ADP-ribose] polymerase 1 (Homo sapiens); entry: `O=C(c1cccc(Cc2nnc(O)c3ccccc23)c1)N1CCC(C(=O)N2CCCCC2)CC1`
Ans. 7.82

Qu. Report measured pIC50 on Poly [ADP-ribose] polymerase 1 (Homo sapiens); entry: `CCCN1CCCN(C(=O)c2cccc(Cc3n[nH]c(=O)c4ccccc34)c2)CC1`
Ans. 8.00

Qu. Report measured pIC50 on Poly [ADP-ribose] polymerase 1 (Homo sapiens); entry: `O=C(c1cccc(Cc2nnc(O)c3ccccc23)c1)N1CCc2ccccc2C1`
Ans. 8.10

Qu. Report measured pIC50 on Poly [ADP-ribose] polymerase 1 (Homo sapiens); entry: `CN(C)CCN(C)C(=O)c1cccc(Cc2nnc(O)c3ccccc23)c1`
Ans. 7.34

Qu. Report measured pIC50 on Poly [ADP-ribose] polymerase 1 (Homo sapiens); entry: `O=C(c1cccc(Cc2n[nH]c(=O)c3ccccc23)c1)N1CCCN(CC2CC2)CC1`
Ans. 7.85

Qu. Report measured pIC50 on Poly [ADP-ribose] polymerase 1 (Homo sapiens); entry: `CC(C)CNC(=O)C1CCN(C(=O)c2cccc(Cc3nnc(O)c4ccccc34)c2)CC1`
Ans. 7.80
